- experiment: compound effects on multiple myeloma cell viability – MM1S, calcein-AM fluorescence, 48 h, basal, profiling panel (AID 1165);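 note: viability of MM1S multiple myeloma cells under basal unstimulated conditions; test concentration not given here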
- testParameters: higher = more signal
# z-score per record follows
Lab note: record the figure alone, no unit after it.

# molecule, z-score
records = [
    ("CN(C)C(=O)[C@]1(Cc2ccccc2CN=[N+]=[N-])N=C(c2ccc(OCCCO)cc2)O[C@@H]1c1ccccc1", -3.16),
]

Task item: Query (molecule): CC(C)[Si](C#C[Si](C(C)C)(C(C)C)C(C)C)(O[C@H](c1ccccc1)c1cn(Cc2ccccc2)nn1)C(C)C ; field requested: z-score
Reply: 1.01

Task item: // same read-out, input: CCOC(=O)C[C@H]1[C@H](OC(=O)c2ccc(C(=O)c3ccccc3)cc2)[C@@H](NC(=O)C2CCCCC2)c2cc(OCCCO)ccc2N1C(=O)c1ccc2ccccc2n1
Reply: -0.436

Task item: // same read-out, input: CC[C@@H]1C=C(C(=O)O)[C@H](c2ccc(C#N)cc2)N1S(=O)(=O)c1ccc(C)cc1
Reply: 0.492

Task item: // same read-out, input: N#Cc1ccc(NN2C(C(O)c3ccc(Br)cc3)C=CC3C(=O)N(c4ccccc4)C(=O)C32)cc1 (stereo not given)
Reply: -0.615
